- ASSAY TARGET: muscarine receptors of the vestibule (Cavia porcellus, UniProt H0VRN8)
- Construct: in the removed, spontaneously beating right vestibule; from tissue; host or cells: isolated spontaneously beating right atrium ('vestibule') of guinea pig
- Sequence (H0VRN8 1-466): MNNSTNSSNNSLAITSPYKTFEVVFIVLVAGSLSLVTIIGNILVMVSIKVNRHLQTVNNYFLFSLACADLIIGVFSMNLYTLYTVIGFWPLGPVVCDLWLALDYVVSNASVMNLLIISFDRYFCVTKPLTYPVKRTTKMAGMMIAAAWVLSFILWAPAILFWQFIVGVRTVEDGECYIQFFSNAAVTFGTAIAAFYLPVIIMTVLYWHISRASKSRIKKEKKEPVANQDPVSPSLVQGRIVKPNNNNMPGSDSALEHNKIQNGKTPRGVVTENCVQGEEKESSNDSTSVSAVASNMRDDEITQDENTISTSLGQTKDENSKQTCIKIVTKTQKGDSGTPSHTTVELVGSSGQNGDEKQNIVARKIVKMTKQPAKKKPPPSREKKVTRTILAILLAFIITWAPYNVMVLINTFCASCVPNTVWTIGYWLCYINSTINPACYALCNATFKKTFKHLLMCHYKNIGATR
- TEST METHOD NOTES: In vitro dissociation constant on spontaneously beating vestibule (heart), methacholine antagonism
- Type: cell-based
- SETUP CONDITIONS: guinea pig spontaneously beating vestibule
PARAMETER MEASURED: Kb (µM)

Take a look at these entries with their results.
MOLECULE	PARAMETER MEASURED	ASSAY RESULT
CN1CCN(CC(=O)N2c3ccccc3C(=O)Nc3cccnc32)CC1	Kb	0.123
CN(C)CC1CCCCN1CC(=O)N1c2ccccc2C(=O)Nc2cccnc21 (stereo not shown)	Kb	0.105

[a] CN1CCC2C1CCN2C(=O)N1c2ccccc2NC(=O)c2cccnc21 (stereo not shown)
[b] CN1CCC2C1CCN2C(=O)N1c2ccccc2C(=O)Nc2cccnc21 (stereo not shown)
Lookup: // select label with min value of measured Kb from [ a , b ] Returns: label corresponding to the selected item.
Found: a
(a: 0.145 µM, b: 0.209 µM)

* * *

- ASSAY TARGET: muscarine receptors in the ileum (Cavia porcellus)
- Construct: The ileum was removed and incubated in an organ bath; from tissue; host or cells: isolated ileum of guinea pig
- TEST METHOD NOTES: In vitro dissociation constant on ileum, methacholine antagonism
- Format: cell-based, guinea pig
- SETUP CONDITIONS: guinea pig ileum
PARAMETER MEASURED: Kb (nM)

COMPOUND	ASSAY TARGET	PARAMETER MEASURED	UNIT SYMBOL	ASSAY RESULT
CN1CCN(CC(=O)N2c3ccccc3C(=O)Nc3cccnc32)CC1 [Y]	muscarine receptors in the ileum (Cavia porcellus)	Kb	nM	194

[a] CN1CCC2C1CCN2C(=O)N1c2ccccc2NC(=O)c2cccnc21 (stereo not shown) [B]
[b] CN1CCC2C1CCN2C(=O)N1c2ccccc2C(=O)Nc2cccnc21 (stereo not shown) [A]
[c] CN(C)CC1CCCCN1CC(=O)N1c2ccccc2C(=O)Nc2cccnc21 (stereo not shown) [X]
Lookup: Order the records so the highest Kb appears first and the lowest last. Rank the items, then write their labels in that order.
Found: c, a, b
(c: 617 nM, a: 60.3 nM, b: 30.2 nM)

* * *

- ASSAY TARGET: M receptors of the bronchial tubes (Cavia porcellus, UniProt H0W1Z3)
- Construct: Guinea pigs of both sexes (550-600 g body weight) were anaesthetised using urethane; from tissue; host or cells: bronchi of anaesthetised guinea pigs (in vivo)
- Sequence (H0W1Z3 1-590): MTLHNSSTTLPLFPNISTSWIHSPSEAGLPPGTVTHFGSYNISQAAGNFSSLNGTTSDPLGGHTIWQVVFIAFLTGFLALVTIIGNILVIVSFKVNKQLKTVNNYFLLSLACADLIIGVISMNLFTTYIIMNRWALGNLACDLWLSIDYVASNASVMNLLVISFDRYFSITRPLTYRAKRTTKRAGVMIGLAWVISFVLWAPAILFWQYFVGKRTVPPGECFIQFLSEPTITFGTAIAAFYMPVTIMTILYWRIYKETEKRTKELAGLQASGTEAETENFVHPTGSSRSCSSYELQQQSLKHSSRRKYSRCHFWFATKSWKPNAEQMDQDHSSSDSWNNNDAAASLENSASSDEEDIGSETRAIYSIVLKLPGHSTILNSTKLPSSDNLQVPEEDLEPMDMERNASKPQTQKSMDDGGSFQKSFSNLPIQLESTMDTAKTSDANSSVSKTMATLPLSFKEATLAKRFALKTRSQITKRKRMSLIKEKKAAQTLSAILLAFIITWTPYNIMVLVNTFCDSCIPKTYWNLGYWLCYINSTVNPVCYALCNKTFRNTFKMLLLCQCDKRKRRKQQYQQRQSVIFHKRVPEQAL
- TEST METHOD NOTES: Acetylcholine antagonism in anaesthetised guinea pigs: inhibition of bronchoconstriction
- Format: in vivo, guinea pig
- SETUP CONDITIONS: iv, 5 min; guinea pig, i.v., acetylcholine antagonism, n=4-6; read-out: -log ED50 bronchial tubes (converted)
- Description: The methods used had the aim of confirming the selectivity of the anti-muscarine effect. Any substances which had been selected on the basis of "in vitro" investigations were investigated for 1. selectivity of the bronchospasmolytic activity in the guinea pig, 1. […] The values were recorded using an IFD recording apparatus. […] The heart rate was measured using a rate detector which is triggered by arterial pulse waves. […]
PARAMETER MEASURED: ED50 (µmol/kg)

Take a look at these entries with their results.
COMPOUND	ASSAY TARGET	UNIT SYMBOL	ED50
CN1CCN(CC(=O)N2c3ccccc3C(=O)Nc3cccnc32)CC1	M receptors of the bronchial tubes (Cavia porcellus, UniProt H0W1Z3)	µmol/kg	0.269
CN1CCC2C1CCN2C(=O)N1c2ccccc2NC(=O)c2cccnc21 (stereo not shown)	M receptors of the bronchial tubes (Cavia porcellus, UniProt H0W1Z3)	µmol/kg	0.0447
CN1CC2CN(C(=O)N3c4ccccc4C(=O)Nc4cccnc43)CC2C1 (stereo not shown)	M receptors of the bronchial tubes (Cavia porcellus, UniProt H0W1Z3)	µmol/kg	0.631
CN1[C@@H]2CC[C@H]1CC(OC(=O)C(CO)c1ccccc1)C2 (stereo partly shown)	M receptors of the bronchial tubes (Cavia porcellus, UniProt H0W1Z3)	µmol/kg	0.00813

[I] CN1CCC2C1CCN2C(=O)N1c2ccccc2C(=O)Nc2cccnc21 (stereo not shown)
[II] CN(C)CC1CCCCN1CC(=O)N1c2ccccc2C(=O)Nc2cccnc21 (stereo not shown)
[III] Cc1scc2c1N(C(=O)N1CC3CN(C)CC3C1)c1ccccc1NC2=O (stereo not shown)
Lookup: Ascending sort, ED50. Rank the items, then write their labels in that order.
Found: I, III, II
(I: 0.049 µmol/kg, III: 0.0891 µmol/kg, II: 2.63 µmol/kg)

* * *

- ASSAY TARGET: M receptors of the heart (Cavia porcellus)
- Construct: from tissue; host or cells: heart of anaesthetised guinea pigs (in vivo)
- Sequence (H0VRN8 1-466): as the sequence (H0VRN8 1-466) above
- TEST METHOD NOTES: Acetylcholine antagonism in anaesthetised guinea pigs: inhibition of bradycardia
- Format: in vivo, guinea pig
- SETUP CONDITIONS: iv, 5 min; guinea pig, i.v., acetylcholine antagonism (bradycardia), n=4-6; read-out: -log ED50 heart (converted)
PARAMETER MEASURED: ED50 (µmol/kg)
Dear colleague, please return just the value in µmol/kg, with no unit written.

MOLECULE	ED50 (µmol/kg)
CN1[C@@H]2CC[C@H]1CC(OC(=O)C(CO)c1ccccc1)C2 (stereo partly shown)	0.0269
CN1CC2CN(C(=O)N3c4ccccc4C(=O)Nc4cccnc43)CC2C1 (stereo not shown)	4.79
CN1CCC2C1CCN2C(=O)N1c2ccccc2NC(=O)c2cccnc21 (stereo not shown)	1.95
CN1CCC2C1CCN2C(=O)N1c2ccccc2C(=O)Nc2cccnc21 (stereo not shown)	1.05
CN(C)CC1CCCCN1CC(=O)N1c2ccccc2C(=O)Nc2cccnc21 (stereo not shown)	1.45
Cc1scc2c1N(C(=O)N1CC3CN(C)CC3C1)c1ccccc1NC2=O (stereo not shown)	0.741

// moving on: another record for ED50
Lookup: // returns reported ED50 for input CN1CCN(CC(=O)N2c3ccccc3C(=O)Nc3cccnc32)CC1
Found: 1.26

* * *

- ASSAY TARGET: M receptors of the bladder (Cavia porcellus)
- Construct: the bladder was connected to a power transducer under a resting tension of 1 gram; from tissue; host or cells: urinary bladder of anaesthetised guinea pigs (in vivo)
- TEST METHOD NOTES: Acetylcholine antagonism in anaesthetised guinea pigs: inhibition of increase in tone of the bladder
- Format: in vivo
- SETUP CONDITIONS: iv, 5 min, guinea pig, i.v., n=4-6, read-out: -log ED50 bladder (converted)
PARAMETER MEASURED: ED50 (µmol/kg)

Take a look at these entries with their results.
COMPOUND	ED50 (µmol/kg)
CN1[C@@H]2CC[C@H]1CC(OC(=O)C(CO)c1ccccc1)C2 (stereo partly shown) [Z]	0.0525
CN1CCN(CC(=O)N2c3ccccc3C(=O)Nc3cccnc32)CC1 [Y]	1.45

[I] CN(C)CC1CCCCN1CC(=O)N1c2ccccc2C(=O)Nc2cccnc21 (stereo not shown) [X]
[II] CN1CC2CN(C(=O)N3c4ccccc4C(=O)Nc4cccnc43)CC2C1 (stereo not shown) [C]
[III] CN1CCC2C1CCN2C(=O)N1c2ccccc2C(=O)Nc2cccnc21 (stereo not shown) [A]
[IV] CN1CCC2C1CCN2C(=O)N1c2ccccc2NC(=O)c2cccnc21 (stereo not shown) [B]
[V] Cc1scc2c1N(C(=O)N1CC3CN(C)CC3C1)c1ccccc1NC2=O (stereo not shown) [D]
Lookup: Ascending sort, ED50. Rank the items, then write their labels in that order.
Found: III, IV, V, II, I
(III: 0.49 µmol/kg, IV: 0.813 µmol/kg, V: 1.58 µmol/kg, II: 3.02 µmol/kg, I: 11.7 µmol/kg)
